# test_summary: Cytotoxicity against RML infected mouse ScGT1 cells assessed as reduction in cell viability at 1 uM measured after 5 days by MTT assay relative to control
# Format: toxicity, cell-based
# reported_conditions: scgt1, 120 h, time 5 day
Recorded measurements of Cell viability (% of control), one per entry
Lab note: write values as number then unit, every time.

molecule_smiles=CN1CCN(CC(=O)Nc2ccc3[nH]c4ccc(NC(=O)CN5CCN(C)CC5)cc4c3c2)CC1 reported_value=70%

**Q:** Look up Cell viability (% of control): O=C(CN1CCCC1)Nc1ccc2[nH]c3ccccc3c2c1
**A:** 72%

----------
# test_summary: Anti-prion activity against RML infected mouse ScGT1 cell lysate assessed as PrPSc residual level at 1 uM measured after 5 days by Western blot analysis relative to control
# Format: functional
# reported_conditions: time 5 day
observed_property: Activity (%)
Give the value in % but do not write % after it.

Past entries and their recorded results:
molecule_smiles=CN(C)CC(=O)Nc1ccc2[nH]c3ccc(NC(=O)CN(C)C)cc3c2c1 reported_value=47
molecule_smiles=O=C(CN1CCCC1)Nc1ccc(Cc2ccc(NC(=O)CN3CCCC3)cc2)cc1 reported_value=103
molecule_smiles=O=C(CN1CCCC1)Nc1ccc2[nH]c3ccccc3c2c1 reported_value=75

**Q:** Form field: reported Activity of O=C(CN1CCCCC1)Nc1ccc2[nH]c3ccc(NC(=O)CN4CCCCC4)cc3c2c1
**A:** 105

**Q:** Query: Activity; subject: O=C(CN1CCCC1)Nc1ccc2[nH]c3ccc(NC(=O)CN4CCCC4)cc3c2c1
**A:** 103

**Q:** Quick one: Activity for O=C(Cn1ccnc1)Nc1ccc2[nH]c3ccc(NC(=O)Cn4ccnc4)cc3c2c1 ?
**A:** 98

**Q:** Which value of Activity has been reported for O=C(CN1CCN(c2ccccc2)CC1)Nc1ccc2[nH]c3ccc(NC(=O)CN4CCN(c5ccccc5)CC4)cc3c2c1 in the records?
**A:** 136

**Q:** # get_value(readout='Activity', item= O=C(CN1CCOCC1)Nc1ccc2[nH]c3ccc(NC(=O)CN4CCOCC4)cc3c2c1 )
**A:** 102

**Q:** Consider the compound shown here: CCN(CC)CC(=O)Nc1ccc2[nH]c3ccc(NC(=O)CN(CC)CC)cc3c2c1 What is its recorded Activity?
**A:** 57

**Q:** May I ask what Activity has been recorded for CC(C)N(CC(=O)Nc1ccc2[nH]c3ccc(NC(=O)CN(C(C)C)C(C)C)cc3c2c1)C(C)C ?
**A:** 39

**Q:** Which measured Activity value corresponds to CN1CCN(CC(=O)Nc2ccc3[nH]c4ccc(NC(=O)CN5CCN(C)CC5)cc4c3c2)CC1 ?
**A:** 46
